Give measured pEC50 for each item. Keep answers brief.
Biological target: Peroxisome proliferator-activated receptor gamma (Homo sapiens)
Sequence (P37231 whole entry, the tested form may be a part): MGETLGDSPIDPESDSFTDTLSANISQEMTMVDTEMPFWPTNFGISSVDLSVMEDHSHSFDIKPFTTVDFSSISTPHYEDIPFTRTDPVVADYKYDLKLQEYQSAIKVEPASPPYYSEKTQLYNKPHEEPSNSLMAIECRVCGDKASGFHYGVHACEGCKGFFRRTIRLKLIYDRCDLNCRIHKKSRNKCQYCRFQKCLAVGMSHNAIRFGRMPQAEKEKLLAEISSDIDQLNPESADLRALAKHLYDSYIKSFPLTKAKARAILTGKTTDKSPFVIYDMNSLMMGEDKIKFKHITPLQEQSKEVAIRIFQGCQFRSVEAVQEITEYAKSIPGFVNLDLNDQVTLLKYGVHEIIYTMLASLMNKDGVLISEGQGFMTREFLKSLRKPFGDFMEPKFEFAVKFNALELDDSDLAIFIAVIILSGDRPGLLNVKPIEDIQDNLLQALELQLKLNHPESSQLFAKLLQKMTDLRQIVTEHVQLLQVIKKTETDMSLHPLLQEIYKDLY
Experiment: Agonist activity at recombinant human GAL4-DBD fused PPARgamma LBD expressed in COS7 cells after 24 hrs by luciferase reporter gene assay
Answers are plain numbers, as −log10 of the molar value.

LINE_NOTATION: Cn1c(COc2cccc(C(=O)O)c2)nc2ccc(Oc3ncc(Cl)cc3Cl)cc21
pEC50: 7.05

LINE_NOTATION: Cn1c(COc2cccc(C(=O)O)c2)nc2ccc(Oc3ccccn3)cc21
pEC50: 5.95

LINE_NOTATION: Cc1ccc(Oc2ccc3nc(COc4cccc(C(=O)O)c4)n(C)c3n2)cc1
pEC50: 7.35

LINE_NOTATION: Cn1c(COc2cccc(C(=O)O)c2)nc2cnc(Oc3ccc4c(c3)OCC4)cc21
pEC50: 6.47

LINE_NOTATION: Cc1cccc(Oc2ccc3nc(COc4cccc(C(=O)O)c4)n(C)c3c2)n1
pEC50: 5.72

LINE_NOTATION: Cc1ccc(C)c(Oc2ccc3nc(COc4cccc(C(=O)O)c4)n(C)c3c2)n1
pEC50: 6.14

LINE_NOTATION: Cn1c(COc2cccc(C(=O)O)c2)nc2cnc(Oc3ccc(Cl)c(F)c3)cc21
pEC50: 5.93

LINE_NOTATION: Cn1c(COc2cccc(C(=O)O)c2)nc2ccc(Oc3ncccc3F)cc21
pEC50: 6.55

LINE_NOTATION: Cn1c(COc2cccc(C(=O)O)c2)nc2ccc(Oc3ccc(F)cn3)cc21
pEC50: 6.09

LINE_NOTATION: Cc1ccc(Oc2ccc3nc(COc4cccc(C(=O)O)c4)n(C)c3n2)cc1C
pEC50: 7.05

Value sought for every listed molecule: pEC50.
1. Cn1c(COc2cccc(C(=O)O)c2)nc2ccc(Oc3cccc(Cl)n3)cc21
2. Cn1c(COc2cccc(C(=O)O)c2)nc2ccc(Oc3ccc(Cl)c(F)c3)nc21
3. Cc1cc(Cl)cnc1Oc1ccc2nc(COc3cccc(C(=O)O)c3)n(C)c2c1
4. Cc1ccc(Oc2ccc3nc(COc4cccc(C(=O)O)c4)n(C)c3c2)nc1C
5. Cn1c(COc2cccc(C(=O)O)c2)nc2cnc(Oc3ccc4c(c3)CCC4)cc21
6. Cn1c(COc2cccc(C(=O)O)c2)nc2ccc(Oc3ccc(Cl)c(F)c3)cc21
7. Cc1ccc(Oc2ccc3nc(COc4cccc(C(=O)O)c4)n(C)c3c2)nc1

*A*
1. 6.13
2. 6.57
3. 7.68
4. 6.75
5. 7.70
6. 7.17
7. 6.89

In plain terms, Cn1c(COc2cccc(C(=O)O)c2)nc2ccc(Oc3ccc(F)cc3)nc21 has a documented pEC50 of 5.97
